biological target: R232-STING (Homo sapiens, UniProt Q86WV6, H232R); test: biochemical
Sequence (Q86WV6 155-341 H232R): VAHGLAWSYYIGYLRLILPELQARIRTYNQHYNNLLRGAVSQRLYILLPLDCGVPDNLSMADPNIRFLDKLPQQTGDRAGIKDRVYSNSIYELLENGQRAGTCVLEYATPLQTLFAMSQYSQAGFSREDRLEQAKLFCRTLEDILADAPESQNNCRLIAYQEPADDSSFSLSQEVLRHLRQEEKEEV
Structures can show the parent of a compound that is named as a salt.
Could you please report measured pKi for the items listed next?
Answers are plain numbers, as −log10 of the molar value.

Solved cases (4 shown):
CCn1nc(C)c(O)c1-c1nc(-c2nc(C(N)=O)cc3c2cnn3C)c(CN)s1 [Example X01, formate] | 9.22
CCn1nc(C)cc1-c1nnc(-c2cc(C(N)=O)cc3c2cnn3CC[C@@H]2COCCN2)[nH]1 | 6.02
CCn1nc(C)cc1-c1nnc(-c2cc(C(N)=O)cc3c2cnn3CCN2CCC(C)CC2)[nH]1 | 6.13
CCn1nc(C)cc1-c1n[nH]c(-c2cc(C(N)=O)cc3c2cnn3CCN2CCC(F)(F)CC2)n1 | 6.56

Hi there! I need pKi for each item below, if you can.
1. CCn1nc(C)cc1-c1n[nH]c(-c2cc(C(N)=O)cc3c2cnn3CCN2CCOC3(CCCC3)C2)n1
2. Cc1nn(CCCO)c(-c2nc(-c3nc(C(N)=O)cc4c3cnn4C)c(CN)o2)c1O
3. CCn1nc(C)cc1-c1n[nH]c(-c2cc(C(N)=O)cc3c2cnn3CCN2CCO[C@@H](COC)C2)n1 (racemic)
4. CCn1nc(C)cc1-c1nnc(-c2cc(C(N)=O)cc3c2cnn3CCN(C)CCOC)[nH]1
5. CCn1nc(C)cc1-c1nnc(-c2cc(C(N)=O)cc3c2cnn3C[C@H](C)C2CCNCC2)[nH]1
6. CCn1nc(C)cc1-c1nnc(-c2cc(C(N)=O)cc3c2cnn3CCC2CCNCC2)[nH]1
7. CCn1nc(C)cc1-c1nnc(-c2cc(C(N)=O)cc3c2cnn3CC2(C)CC(OC)CN2C)[nH]1 (stereo not shown)

Reply:
6.85
7.53
6.03
6.06
6.19
6.19
6.63

// each listed compound needs a value for pKi
1. CCn1nc(C)cc1-c1nnc(-c2cc(C(N)=O)cc3c2cnn3CCC(=O)O)[nH]1
2. Cc1cc(-c2nc(-c3nc(C(N)=O)cc4c3cnn4C)c(CN)o2)n(CCCO)n1
3. CCn1nc(C)cc1-c1n[nH]c(-c2cc(C(N)=O)cc3c2cnn3CCN2C[C@H](C)OC[C@H]2C)n1 (racemic)

Reply:
1: 6.96; 2: 7.46; 3: 6.04

Give me pKi for each of these compounds, listed below.
1. CCn1nc(C)cc1-c1nnc(-c2cc(C(N)=O)cc3c2cnn3[C@H](C)CCN2CCOCC2)[nH]1 (racemic)
2. CCn1nc(C)cc1-c1n[nH]c(-c2cc(C(N)=O)cc3c2cnn3CCN(C)CCO)n1
3. CCn1nc(C)cc1-c1n[nH]c(-c2cc(C(N)=O)cc3c2cnn3CCN2C[C@@H](C)OC[C@H]2C)n1
4. CCn1nc(C)cc1-c1n[nH]c(-c2cc(C(N)=O)cc3c2cnn3CCN2CC[C@H](OC)C2)n1
5. CCn1nc(C)cc1-c1nc(CN)c(-c2nc(C(N)=O)cc3c2cnn3C)o1
6. CCn1nc(C)cc1-c1nnc(-c2cc(C(N)=O)cc3c2cc(C(=O)O)n3C)[nH]1
7. CCn1nc(C)c(O)c1-c1nc(-c2nc(C(N)=O)cc3c2cnn3C)c(CN)o1

Reply:
6.35
6.02
6.18
6.03
6.72
6.76
8.36
